assay: Biodistribution in SCID mice bearing AsPC-1 xenografts; format: in vivo; settings: male, mouse, liver, iv, total radioactivity, 4 h pi, Entresto+Lis, read-out: uptake in Liver
Peptide text beside a SMILES is read from it. * marks the point of attachment. Palmitoyl = CCCCCCCCCCCCCCCC(=O)*; X1 = NCCNCC(CNCCN)C(=O)*
measurement.kind: tissue uptake at 4 h (%ID/g)
Give the value in %ID/g but do not write %ID/g after it.

Query CCCCCCCCCCCCCCCC(=O)NCCCC[C@H](NC(=O)C(CNCCN)CNCCN)C(=O)N[C@@H](CCCNC(=N)N)C(=O)N[C@@H](CCCNC(=N)N)C(=O)N1CCC[C@H]1C(=O)N[C@@H](Cc1ccc(O)cc1)C(=O)N[C@H](C(=O)N[C@@H](CC(C)C)C(=O)O)[C@@H](C)CC [[^99mTc]Tc-DT9, metal not drawn] (X1-K(Palmitoyl)RRPYIL-OH) yields tissue uptake at 4 h of 28.4

====

experiment: Biodistribution in SCID mice bearing AsPC-1 xenografts; assay type: in vivo; settings: male, mouse, kidneys, iv, total radioactivity, 4 h pi, Block (Entresto+Lis plus excess NT), read-out: uptake in Kidneys
Peptide text beside a SMILES is read from it. * marks the point of attachment. Palmitoyl = CCCCCCCCCCCCCCCC(=O)*; X1 = NCCNCC(CNCCN)C(=O)*
measurement.kind: tissue uptake at 4 h (%ID/g)
Give the value in %ID/g but do not write %ID/g after it.

Query CCCCCCCCCCCCCCCC(=O)NCCCC[C@H](NC(=O)C(CNCCN)CNCCN)C(=O)N[C@@H](CCCNC(=N)N)C(=O)N[C@@H](CCCNC(=N)N)C(=O)N1CCC[C@H]1C(=O)N[C@@H](Cc1ccc(O)cc1)C(=O)N[C@H](C(=O)N[C@@H](CC(C)C)C(=O)O)[C@@H](C)CC [[^99mTc]Tc-DT9, metal not drawn] (X1-K(Palmitoyl)RRPYIL-OH) yields tissue uptake at 4 h of 8.56

====

assay: Biodistribution in SCID mice bearing AsPC-1 xenografts; format: in vivo; conditions: male, mouse, intestines, iv, total radioactivity, 24 h pi, Entresto+Lis, read-out: uptake in Intestines
Peptide text beside a SMILES is read from it. * marks the point of attachment. Palmitoyl = CCCCCCCCCCCCCCCC(=O)*; X1 = NCCNCC(CNCCN)C(=O)*
measurement.kind: tissue uptake at 24 h (%ID/g)
Give the value in %ID/g but do not write %ID/g after it.

Query CCCCCCCCCCCCCCCC(=O)NCCCC[C@H](NC(=O)C(CNCCN)CNCCN)C(=O)N[C@@H](CCCNC(=N)N)C(=O)N[C@@H](CCCNC(=N)N)C(=O)N1CCC[C@H]1C(=O)N[C@@H](Cc1ccc(O)cc1)C(=O)N[C@H](C(=O)N[C@@H](CC(C)C)C(=O)O)[C@@H](C)CC [[^99mTc]Tc-DT9, metal not drawn] (X1-K(Palmitoyl)RRPYIL-OH) yields tissue uptake at 24 h of 5.37

====

Assay: Biodistribution in SCID mice bearing AsPC-1 xenografts
Type: in vivo
Details: male, mouse, muscle, iv, 3 pmol, total radioactivity, 24 h pi, Controls, read-out: uptake in Muscle
Procedure: Twenty male severe combined immunodeficiency (SCID) mice (23.1 ± 1.6 g body weight, six weeks of age on arrival day; NCSR “Demokritos” Animal House, Athens, Greece) were used in the biodistribution experiments. […] Sample radioactivity was measured on the γ-counter together with proper standards of the injected dose. Results were calculated as percentage of injected activity per gram tissue (%IA/g) and provided as mean %IA/g values ± sd. […]
Peptide text beside a SMILES is read from it. * marks the point of attachment. Palmitoyl = CCCCCCCCCCCCCCCC(=O)*; X1 = NCCNCC(CNCCN)C(=O)*
measurement.kind: tissue uptake at 24 h (%ID/g)
Give the value in %ID/g but do not write %ID/g after it.

Query CCCCCCCCCCCCCCCC(=O)NCCCC[C@H](NC(=O)C(CNCCN)CNCCN)C(=O)N[C@@H](CCCNC(=N)N)C(=O)N[C@@H](CCCNC(=N)N)C(=O)N1CCC[C@H]1C(=O)N[C@@H](Cc1ccc(O)cc1)C(=O)N[C@H](C(=O)N[C@@H](CC(C)C)C(=O)O)[C@@H](C)CC [[^99mTc]Tc-DT9, metal not drawn] (X1-K(Palmitoyl)RRPYIL-OH) yields tissue uptake at 24 h of 0.22

====

experiment: Biodistribution in SCID mice bearing AsPC-1 xenografts; assay type: in vivo; details: male, mouse, stomach, iv, total radioactivity, 4 h pi, Block (Entresto+Lis plus excess NT), read-out: uptake in Stomach
Peptide text beside a SMILES is read from it. * marks the point of attachment. Palmitoyl = CCCCCCCCCCCCCCCC(=O)*; X1 = NCCNCC(CNCCN)C(=O)*
measurement.kind: tissue uptake at 4 h

Query CCCCCCCCCCCCCCCC(=O)NCCCC[C@H](NC(=O)C(CNCCN)CNCCN)C(=O)N[C@@H](CCCNC(=N)N)C(=O)N[C@@H](CCCNC(=N)N)C(=O)N1CCC[C@H]1C(=O)N[C@@H](Cc1ccc(O)cc1)C(=O)N[C@H](C(=O)N[C@@H](CC(C)C)C(=O)O)[C@@H](C)CC [[^99mTc]Tc-DT9, metal not drawn] (X1-K(Palmitoyl)RRPYIL-OH) yields tissue uptake at 4 h of 2.06 %ID/g

====

assay: Biodistribution in SCID mice bearing AsPC-1 xenografts; type: in vivo; conditions: male, mouse, AsPC-1 tumor, iv, 3 pmol, total radioactivity, 24 h pi, Controls, read-out: uptake in AsPC-1 Tumor
Peptide text beside a SMILES is read from it. * marks the point of attachment. Palmitoyl = CCCCCCCCCCCCCCCC(=O)*; X1 = NCCNCC(CNCCN)C(=O)*
measurement.kind: tissue uptake at 24 h (%ID/g)
Give the value in %ID/g but do not write %ID/g after it.

Query CCCCCCCCCCCCCCCC(=O)NCCCC[C@H](NC(=O)C(CNCCN)CNCCN)C(=O)N[C@@H](CCCNC(=N)N)C(=O)N[C@@H](CCCNC(=N)N)C(=O)N1CCC[C@H]1C(=O)N[C@@H](Cc1ccc(O)cc1)C(=O)N[C@H](C(=O)N[C@@H](CC(C)C)C(=O)O)[C@@H](C)CC [[^99mTc]Tc-DT9, metal not drawn] (X1-K(Palmitoyl)RRPYIL-OH) yields tissue uptake at 24 h of 3.32

====

experiment: Biodistribution in SCID mice bearing AsPC-1 xenografts; assay type: in vivo; settings: male, mouse, blood, iv, total radioactivity, 4 h pi, Entresto+Lis, read-out: uptake in Blood
Peptide text beside a SMILES is read from it. * marks the point of attachment. Palmitoyl = CCCCCCCCCCCCCCCC(=O)*; X1 = NCCNCC(CNCCN)C(=O)*
measurement.kind: tissue uptake at 4 h (%ID/g)
Give the value in %ID/g but do not write %ID/g after it.

Query CCCCCCCCCCCCCCCC(=O)NCCCC[C@H](NC(=O)C(CNCCN)CNCCN)C(=O)N[C@@H](CCCNC(=N)N)C(=O)N[C@@H](CCCNC(=N)N)C(=O)N1CCC[C@H]1C(=O)N[C@@H](Cc1ccc(O)cc1)C(=O)N[C@H](C(=O)N[C@@H](CC(C)C)C(=O)O)[C@@H](C)CC [[^99mTc]Tc-DT9, metal not drawn] (X1-K(Palmitoyl)RRPYIL-OH) yields tissue uptake at 4 h of 4.32

====

test: Biodistribution in SCID mice bearing AsPC-1 xenografts; assay type: in vivo; details: male, mouse, heart, iv, total radioactivity, 4 h pi, Block (Entresto+Lis plus excess NT), read-out: uptake in Heart
Peptide text beside a SMILES is read from it. * marks the point of attachment. Palmitoyl = CCCCCCCCCCCCCCCC(=O)*; X1 = NCCNCC(CNCCN)C(=O)*
measurement.kind: tissue uptake at 4 h (%ID/g)
Give the value in %ID/g but do not write %ID/g after it.

Query CCCCCCCCCCCCCCCC(=O)NCCCC[C@H](NC(=O)C(CNCCN)CNCCN)C(=O)N[C@@H](CCCNC(=N)N)C(=O)N[C@@H](CCCNC(=N)N)C(=O)N1CCC[C@H]1C(=O)N[C@@H](Cc1ccc(O)cc1)C(=O)N[C@H](C(=O)N[C@@H](CC(C)C)C(=O)O)[C@@H](C)CC [[^99mTc]Tc-DT9, metal not drawn] (X1-K(Palmitoyl)RRPYIL-OH) yields tissue uptake at 4 h of 2.79

====

test: Biodistribution in SCID mice bearing AsPC-1 xenografts; type: in vivo; conditions: male, mouse, spleen, iv, total radioactivity, 4 h pi, Block (Entresto+Lis plus excess NT), read-out: uptake in Spleen
Peptide text beside a SMILES is read from it. * marks the point of attachment. Palmitoyl = CCCCCCCCCCCCCCCC(=O)*; X1 = NCCNCC(CNCCN)C(=O)*
measurement.kind: tissue uptake at 4 h (%ID/g)
Give the value in %ID/g but do not write %ID/g after it.

Query CCCCCCCCCCCCCCCC(=O)NCCCC[C@H](NC(=O)C(CNCCN)CNCCN)C(=O)N[C@@H](CCCNC(=N)N)C(=O)N[C@@H](CCCNC(=N)N)C(=O)N1CCC[C@H]1C(=O)N[C@@H](Cc1ccc(O)cc1)C(=O)N[C@H](C(=O)N[C@@H](CC(C)C)C(=O)O)[C@@H](C)CC [[^99mTc]Tc-DT9, metal not drawn] (X1-K(Palmitoyl)RRPYIL-OH) yields tissue uptake at 4 h of 6.18

Source of measurements: paper PMC10459693
